Attribution: paper PMC6175062

# Test system: OATP1B
# experimentNotes: Rifampicin inhibition of CPI uptake in plated human hepatocytes
# Assay type: cell-based
# experimentalConditions: human, plated cryopreserved human hepatocytes, probe CPI (coproporphyrin I) 0.30 µM, CPI 0.30 µM, 60 min pre-incubation with inhibitor, donor QQE; read-out: IC50, CPI uptake, pre-incubation with RIF
readout: IC50 at 5 min

Enquiry: Consider the molecule CO[C@H]1/C=C/O[C@@]2(C)Oc3c(C)c(O)c4c(O)c(c(/C=N/N5CCN(C)CC5)c(O)c4c3C2=O)NC(=O)/C(C)=C\C=C\[C@H](C)[C@H](O)[C@@H](C)[C@@H](O)[C@@H](C)[C@H](OC(C)=O)[C@@H]1C [rifampicin] and give its recorded IC50 at 5 min.
Return: 300 nM

* * *

# System: OATP1B
# experimentNotes: Model-based rifampicin in vivo OATP Ki using CPI as probe
# Set-up: species or system human
# experimentalConditions: human, plasma, oral, 600 mg, probe CPI (endogenous biomarker), corrected for rifampicin fu plasma 0.11; read-out: in vivo unbound OATP Ki using CPI data
readout: pKi
Numbers only, as −log10 of the molar value.

Enquiry: Consider the compound CO[C@H]1/C=C/O[C@@]2(C)Oc3c(C)c(O)c4c(O)c(c(/C=N/N5CCN(C)CC5)c(O)c4c3C2=O)NC(=O)/C(C)=C\C=C\[C@H](C)[C@H](O)[C@@H](C)[C@@H](O)[C@@H](C)[C@H](OC(C)=O)[C@@H]1C [rifampicin] and give its recorded pKi.
Return: 6.89

* * *

# Test system: OATP1B
# experimentNotes: Model-based rifampicin in vivo OATP Ki using CPI as probe
# Set-up: species or system human
# experimentalConditions: human, plasma, oral, 600 mg, probe CPI (endogenous biomarker), total (not corrected for fu); CPI as probe; read-out: KiCPI, total Ki estimated by the model, population estimate (SE%)
readout: pKi
Numbers only, as −log10 of the molar value.

Enquiry: Consider the compound CO[C@H]1/C=C/O[C@@]2(C)Oc3c(C)c(O)c4c(O)c(c(/C=N/N5CCN(C)CC5)c(O)c4c3C2=O)NC(=O)/C(C)=C\C=C\[C@H](C)[C@H](O)[C@@H](C)[C@@H](O)[C@@H](C)[C@H](OC(C)=O)[C@@H]1C and give its recorded pKi.
Return: 5.94

* * *

# experimentNotes: Population PK model of rosuvastatin plasma and urine data with/without rifampicin
# Format: in vivo, human
# experimentalConditions: male, human, in vivo, 5 mg
readout: CL renal (mL/min)
One number for each entry, in mL/min.

Enquiry: Consider the compound CC(C)c1nc(N(C)S(C)(=O)=O)nc(-c2ccc(F)cc2)c1/C=C/[C@@H](O)C[C@@H](O)CC(=O)O [RSV, rosuvastatin] and give its recorded CL renal.
Return: 141
